ASSAY_TARGET: Serine/threonine-protein kinase Chk1 (Homo sapiens)
METHOD_DESCRIPTION: Inhibition of CHK1
VALUE_KIND: Ki

Give the reported Ki for this compound. `CNc1cncc(-c2c[nH]c(=O)c(NC(=O)c3ccc(N4CCC[C@H]4CN4CCCC4)cc3)c2)n1`
> 1 µM

====

ASSAY_TARGET: Dual specificity mitogen-activated protein kinase kinase 1 (Homo sapiens, UniProt Q02750)
METHOD_DESCRIPTION: Inhibition of MEK1
VALUE_KIND: Ki

Give the reported Ki for this compound. `CNc1cncc(-c2c[nH]c(=O)c(NC(=O)c3ccc(N4CCC[C@H]4CN4CCCC4)cc3)c2)n1`
> 1000 nM

====

ASSAY_TARGET: Tyrosine-protein kinase Yes (Homo sapiens)
VALUE_KIND: Ki

Send back Tyrosine-protein kinase Yes (Homo sapiens) Ki of `CNc1cncc(-c2c[nH]c(=O)c(NC(=O)c3ccc(N4CCC[C@H]4CN4CCCC4)cc3)c2)n1` only.
> 1000 nM

====

ASSAY_TARGET: Fibroblast growth factor receptor 4 (Homo sapiens)
pKi: −log10 of the molar value.
VALUE_KIND: pKi

Send back Fibroblast growth factor receptor 4 (Homo sapiens) pKi of `CNc1cncc(-c2c[nH]c(=O)c(NC(=O)c3ccc(N4CCC[C@H]4CN4CCCC4)cc3)c2)n1` only.
< 6.00

====

ASSAY_TARGET: Serine/threonine-protein kinase Chk1 (Homo sapiens)
Sequence (O14757 whole entry): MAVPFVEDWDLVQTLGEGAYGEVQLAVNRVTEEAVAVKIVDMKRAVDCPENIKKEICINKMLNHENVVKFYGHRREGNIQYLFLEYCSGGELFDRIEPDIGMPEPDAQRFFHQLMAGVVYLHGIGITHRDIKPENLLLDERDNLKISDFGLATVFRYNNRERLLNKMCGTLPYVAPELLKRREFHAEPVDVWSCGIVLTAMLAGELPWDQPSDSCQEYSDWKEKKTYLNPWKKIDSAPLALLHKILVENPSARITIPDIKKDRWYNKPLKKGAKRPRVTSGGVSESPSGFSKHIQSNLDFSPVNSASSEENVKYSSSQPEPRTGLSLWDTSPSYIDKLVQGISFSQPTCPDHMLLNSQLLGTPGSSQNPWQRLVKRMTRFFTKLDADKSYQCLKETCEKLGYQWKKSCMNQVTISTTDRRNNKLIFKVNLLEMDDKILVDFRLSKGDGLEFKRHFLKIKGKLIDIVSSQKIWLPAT
METHOD_DESCRIPTION: Inhibition of CHEK1
VALUE_KIND: Ki

Send back Serine/threonine-protein kinase Chk1 (Homo sapiens) Ki of `CNc1cncc(-c2c[nH]c(=O)c(NC(=O)c3ccc(N4CCC[C@H]4CN4CCCC4)cc3)c2)n1` only.
> 1000 nM

====

ASSAY_TARGET: Serine/threonine-protein kinase pim-1 (Homo sapiens, UniProt P11309)
METHOD_DESCRIPTION: Inhibition of PIM1
VALUE_KIND: Ki

Give the reported Ki for this molecule. `CNc1cncc(-c2c[nH]c(=O)c(NC(=O)c3ccc(N4CCC[C@H]4CN4CCCC4)cc3)c2)n1`
> 1000 nM

====

ASSAY_TARGET: Calcium/calmodulin-dependent protein kinase type IV (Homo sapiens)
METHOD_DESCRIPTION: Inhibition of CAMK4
pKi: −log10 of the molar value.
VALUE_KIND: pKi

Give the reported pKi for this molecule. `CNc1cncc(-c2c[nH]c(=O)c(NC(=O)c3ccc(N4CCC[C@H]4CN4CCCC4)cc3)c2)n1`
< 6.00

====

ASSAY_TARGET: Dual specificity mitogen-activated protein kinase kinase 6 (Homo sapiens, UniProt P52564)
Sequence (P52564 whole entry): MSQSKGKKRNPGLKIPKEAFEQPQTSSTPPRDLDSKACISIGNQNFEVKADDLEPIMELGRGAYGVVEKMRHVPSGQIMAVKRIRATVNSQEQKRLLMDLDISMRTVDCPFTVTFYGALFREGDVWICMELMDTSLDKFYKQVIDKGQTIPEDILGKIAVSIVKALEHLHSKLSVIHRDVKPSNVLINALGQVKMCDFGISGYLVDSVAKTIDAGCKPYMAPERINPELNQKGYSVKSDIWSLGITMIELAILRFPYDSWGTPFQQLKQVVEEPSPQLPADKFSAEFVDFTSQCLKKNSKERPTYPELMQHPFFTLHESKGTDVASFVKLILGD
METHOD_DESCRIPTION: Inhibition of MKK6
pKi: −log10 of the molar value.
VALUE_KIND: pKi

Give the reported pKi for this molecule. `CNc1cncc(-c2c[nH]c(=O)c(NC(=O)c3ccc(N4CCC[C@H]4CN4CCCC4)cc3)c2)n1`
< 6.00

====

ASSAY_TARGET: UniProt O43293
Sequence (O43293 whole entry): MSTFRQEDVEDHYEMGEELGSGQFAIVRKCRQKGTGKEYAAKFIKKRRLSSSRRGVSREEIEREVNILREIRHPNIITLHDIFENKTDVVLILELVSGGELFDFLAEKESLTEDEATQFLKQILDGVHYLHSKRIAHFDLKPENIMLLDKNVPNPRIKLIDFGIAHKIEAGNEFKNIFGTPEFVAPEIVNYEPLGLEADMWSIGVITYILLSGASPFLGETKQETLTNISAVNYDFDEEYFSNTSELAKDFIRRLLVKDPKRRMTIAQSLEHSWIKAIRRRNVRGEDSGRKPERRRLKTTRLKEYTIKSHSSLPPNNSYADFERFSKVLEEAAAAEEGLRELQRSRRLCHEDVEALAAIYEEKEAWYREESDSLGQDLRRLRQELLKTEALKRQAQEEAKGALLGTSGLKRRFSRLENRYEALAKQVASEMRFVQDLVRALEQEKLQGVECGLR
VALUE_KIND: Ki

Send back UniProt O43293 Ki of `CNc1cncc(-c2c[nH]c(=O)c(NC(=O)c3ccc(N4CCC[C@H]4CN4CCCC4)cc3)c2)n1` only.
> 1000 nM

====

ASSAY_TARGET: Mitogen-activated protein kinase 3 (Homo sapiens, UniProt P27361)
METHOD_DESCRIPTION: Inhibition of ERK1
VALUE_KIND: Ki

Give the reported Ki for this compound. `CNc1cncc(-c2c[nH]c(=O)c(NC(=O)c3ccc(N4CCC[C@H]4CN4CCCC4)cc3)c2)n1`
> 2 µM

====

METHOD_DESCRIPTION: Solubility of the compound in phosphate buffer at pH 7.4 by high throughput shake flask assay
Format: physicochemical
Listed here are compounds together with their documented solubility thermodynamic.
# output: bare number, implied unit µg/mL

| SMILES_REPR | solubility thermodynamic (µg/mL) |
| --- | --- |
| CNc1cncc(-c2c[nH]c(=O)c(NC(=O)c3ccc(N4CCC[C@H]4CN4CCCC4)cc3)c2)c1 | 115 |
| CNc1cc(F)cc(-c2c[nH]c(=O)c(NC(=O)c3ccc(N4CCC[C@H]4CN4CCCC4)cc3)c2)c1 | 34 |
| CNc1cc(C#N)cc(-c2c[nH]c(=O)c(NC(=O)c3ccc(N4CCC[C@H]4CN4CCCC4)cc3)c2)c1 | 23 |

Please turn your attention to the following entry.
Give the reported solubility thermodynamic for this compound. `CNc1cncc(-c2c[nH]c(=O)c(NC(=O)c3ccc(N4CCC[C@H]4CN4CCCC4)cc3)c2)n1`
150

====

ASSAY_TARGET: Dual specificity tyrosine-phosphorylation-regulated kinase 1A (Homo sapiens)
pKi: −log10 of the molar value.
VALUE_KIND: pKi

Send back Dual specificity tyrosine-phosphorylation-regulated kinase 1A (Homo sapiens) pKi of `CNc1cncc(-c2c[nH]c(=O)c(NC(=O)c3ccc(N4CCC[C@H]4CN4CCCC4)cc3)c2)n1` only.
< 6.00

====

ASSAY_TARGET: Protein kinase C theta type (Homo sapiens, UniProt Q04759)
pKi: −log10 of the molar value.
VALUE_KIND: pKi

Send back Protein kinase C theta type (Homo sapiens, UniProt Q04759) pKi of `CNc1cncc(-c2c[nH]c(=O)c(NC(=O)c3ccc(N4CCC[C@H]4CN4CCCC4)cc3)c2)n1` only.
< 5.70

====

ASSAY_TARGET: Mitogen-activated protein kinase 14 (Homo sapiens)
METHOD_DESCRIPTION: Inhibition of P38alpha
VALUE_KIND: Ki

Send back Mitogen-activated protein kinase 14 (Homo sapiens) Ki of `CNc1cncc(-c2c[nH]c(=O)c(NC(=O)c3ccc(N4CCC[C@H]4CN4CCCC4)cc3)c2)n1` only.
> 1000 nM

====

ASSAY_TARGET: Receptor tyrosine-protein kinase erbB-4 (Homo sapiens)
Sequence (Q15303 whole entry): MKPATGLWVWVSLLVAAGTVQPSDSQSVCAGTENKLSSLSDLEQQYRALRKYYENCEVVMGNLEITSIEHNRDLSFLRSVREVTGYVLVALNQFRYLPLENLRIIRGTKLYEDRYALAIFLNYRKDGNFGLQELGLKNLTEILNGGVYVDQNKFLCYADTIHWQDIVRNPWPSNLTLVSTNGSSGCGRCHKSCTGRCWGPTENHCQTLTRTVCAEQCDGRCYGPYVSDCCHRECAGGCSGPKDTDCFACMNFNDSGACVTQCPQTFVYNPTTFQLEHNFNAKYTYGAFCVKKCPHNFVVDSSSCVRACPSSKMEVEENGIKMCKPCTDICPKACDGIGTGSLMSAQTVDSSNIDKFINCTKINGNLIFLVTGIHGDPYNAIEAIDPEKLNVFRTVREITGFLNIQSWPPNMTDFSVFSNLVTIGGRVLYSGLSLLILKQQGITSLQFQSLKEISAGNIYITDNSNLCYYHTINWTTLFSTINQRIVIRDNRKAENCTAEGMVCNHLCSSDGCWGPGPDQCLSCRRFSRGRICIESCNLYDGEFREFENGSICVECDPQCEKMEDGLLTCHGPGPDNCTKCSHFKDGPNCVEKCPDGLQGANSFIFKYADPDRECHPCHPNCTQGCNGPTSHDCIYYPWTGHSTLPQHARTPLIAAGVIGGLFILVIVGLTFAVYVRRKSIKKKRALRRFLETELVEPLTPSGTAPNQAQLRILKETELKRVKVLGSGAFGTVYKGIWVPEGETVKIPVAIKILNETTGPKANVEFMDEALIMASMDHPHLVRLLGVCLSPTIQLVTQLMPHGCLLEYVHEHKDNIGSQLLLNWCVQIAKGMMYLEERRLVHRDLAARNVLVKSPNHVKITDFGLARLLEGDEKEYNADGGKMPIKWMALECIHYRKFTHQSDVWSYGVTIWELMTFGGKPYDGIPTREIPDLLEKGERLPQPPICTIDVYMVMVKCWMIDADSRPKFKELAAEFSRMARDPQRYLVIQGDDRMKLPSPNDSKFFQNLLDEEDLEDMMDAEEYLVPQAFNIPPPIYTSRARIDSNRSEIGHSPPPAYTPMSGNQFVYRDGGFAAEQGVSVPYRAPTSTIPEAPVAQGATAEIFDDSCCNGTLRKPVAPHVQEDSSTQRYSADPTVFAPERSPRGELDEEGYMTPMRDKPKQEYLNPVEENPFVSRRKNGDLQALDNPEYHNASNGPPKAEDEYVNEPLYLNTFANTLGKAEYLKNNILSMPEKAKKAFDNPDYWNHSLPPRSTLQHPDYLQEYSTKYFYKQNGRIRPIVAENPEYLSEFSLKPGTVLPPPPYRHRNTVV
pKi: −log10 of the molar value.
VALUE_KIND: pKi

Give the reported pKi for this compound. `CNc1cncc(-c2c[nH]c(=O)c(NC(=O)c3ccc(N4CCC[C@H]4CN4CCCC4)cc3)c2)n1`
< 6.00

====

ASSAY_TARGET: UniProt:O60674
Sequence (O60674 whole entry): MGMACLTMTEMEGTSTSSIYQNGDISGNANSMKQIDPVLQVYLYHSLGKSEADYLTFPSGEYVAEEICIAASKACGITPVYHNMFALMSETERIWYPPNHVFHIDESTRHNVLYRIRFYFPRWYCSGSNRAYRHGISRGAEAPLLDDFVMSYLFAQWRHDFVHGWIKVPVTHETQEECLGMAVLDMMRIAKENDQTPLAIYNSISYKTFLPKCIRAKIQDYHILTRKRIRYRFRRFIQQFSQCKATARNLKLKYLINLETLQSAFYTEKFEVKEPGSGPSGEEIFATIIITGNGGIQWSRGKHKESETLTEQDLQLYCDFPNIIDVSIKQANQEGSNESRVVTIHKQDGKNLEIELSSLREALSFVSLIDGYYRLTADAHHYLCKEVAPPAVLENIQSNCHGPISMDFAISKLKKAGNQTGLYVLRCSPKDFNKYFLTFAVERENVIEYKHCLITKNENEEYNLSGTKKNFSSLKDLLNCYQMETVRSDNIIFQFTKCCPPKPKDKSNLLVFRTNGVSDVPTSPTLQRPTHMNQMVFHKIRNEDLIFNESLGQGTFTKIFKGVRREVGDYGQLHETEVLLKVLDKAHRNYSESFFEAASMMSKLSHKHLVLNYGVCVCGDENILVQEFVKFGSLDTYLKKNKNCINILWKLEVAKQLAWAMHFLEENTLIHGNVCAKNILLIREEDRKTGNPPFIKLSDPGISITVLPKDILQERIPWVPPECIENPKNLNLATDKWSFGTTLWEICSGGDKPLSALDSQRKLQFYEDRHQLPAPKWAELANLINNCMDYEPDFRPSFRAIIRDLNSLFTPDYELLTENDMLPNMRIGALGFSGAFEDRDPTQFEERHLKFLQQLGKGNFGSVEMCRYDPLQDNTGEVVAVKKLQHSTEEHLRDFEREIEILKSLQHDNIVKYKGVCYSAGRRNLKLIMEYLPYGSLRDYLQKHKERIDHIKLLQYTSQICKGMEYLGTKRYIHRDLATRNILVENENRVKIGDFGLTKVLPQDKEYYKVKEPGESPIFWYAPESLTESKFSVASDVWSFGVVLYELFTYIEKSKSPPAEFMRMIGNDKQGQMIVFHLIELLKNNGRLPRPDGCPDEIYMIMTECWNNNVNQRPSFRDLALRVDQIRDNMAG
VALUE_KIND: Ki (nM)
# output: bare number, implied unit nM

Give the reported Ki for this molecule. `CNc1cncc(-c2c[nH]c(=O)c(NC(=O)c3ccc(N4CCC[C@H]4CN4CCCC4)cc3)c2)n1`
370

====

ASSAY_TARGET: Focal adhesion kinase 1 (Homo sapiens)
Sequence (Q05397 whole entry): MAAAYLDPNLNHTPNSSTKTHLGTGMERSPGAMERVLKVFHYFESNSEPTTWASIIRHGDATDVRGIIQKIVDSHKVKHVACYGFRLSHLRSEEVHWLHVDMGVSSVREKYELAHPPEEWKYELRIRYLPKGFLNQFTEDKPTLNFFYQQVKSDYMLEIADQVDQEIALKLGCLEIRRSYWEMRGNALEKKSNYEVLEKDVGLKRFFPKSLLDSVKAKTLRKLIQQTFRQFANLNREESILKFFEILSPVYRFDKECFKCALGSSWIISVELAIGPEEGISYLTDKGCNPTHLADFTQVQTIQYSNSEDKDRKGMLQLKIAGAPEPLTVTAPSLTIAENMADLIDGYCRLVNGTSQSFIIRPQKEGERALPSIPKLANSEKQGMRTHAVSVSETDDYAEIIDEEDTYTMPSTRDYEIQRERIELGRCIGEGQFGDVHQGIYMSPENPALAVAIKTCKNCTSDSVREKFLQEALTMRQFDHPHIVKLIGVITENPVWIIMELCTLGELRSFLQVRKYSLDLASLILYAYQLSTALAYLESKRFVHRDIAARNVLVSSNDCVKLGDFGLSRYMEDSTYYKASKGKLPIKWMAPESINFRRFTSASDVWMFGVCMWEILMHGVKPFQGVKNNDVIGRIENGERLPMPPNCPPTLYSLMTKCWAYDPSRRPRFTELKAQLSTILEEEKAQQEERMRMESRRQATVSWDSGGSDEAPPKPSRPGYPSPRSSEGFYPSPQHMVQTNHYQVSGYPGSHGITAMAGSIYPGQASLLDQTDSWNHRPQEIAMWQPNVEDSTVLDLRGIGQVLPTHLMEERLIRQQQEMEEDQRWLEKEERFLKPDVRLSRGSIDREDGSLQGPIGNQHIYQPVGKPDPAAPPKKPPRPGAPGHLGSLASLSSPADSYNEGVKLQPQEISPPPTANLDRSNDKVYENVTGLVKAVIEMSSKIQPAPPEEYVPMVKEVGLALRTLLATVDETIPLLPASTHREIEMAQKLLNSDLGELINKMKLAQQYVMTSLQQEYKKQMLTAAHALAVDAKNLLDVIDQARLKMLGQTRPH
VALUE_KIND: Ki

Send back Focal adhesion kinase 1 (Homo sapiens) Ki of `CNc1cncc(-c2c[nH]c(=O)c(NC(=O)c3ccc(N4CCC[C@H]4CN4CCCC4)cc3)c2)n1` only.
> 1000 nM

====

ASSAY_TARGET: Mitogen-activated protein kinase 11 (Homo sapiens, UniProt Q15759)
METHOD_DESCRIPTION: Inhibition of P38beta
pKi: −log10 of the molar value.
VALUE_KIND: pKi

Give the reported pKi for this molecule. `CNc1cncc(-c2c[nH]c(=O)c(NC(=O)c3ccc(N4CCC[C@H]4CN4CCCC4)cc3)c2)n1`
< 6.00

====

ASSAY_TARGET: Ribosomal protein S6 kinase alpha-5 (Homo sapiens, UniProt O75582)
Sequence (O75582 whole entry): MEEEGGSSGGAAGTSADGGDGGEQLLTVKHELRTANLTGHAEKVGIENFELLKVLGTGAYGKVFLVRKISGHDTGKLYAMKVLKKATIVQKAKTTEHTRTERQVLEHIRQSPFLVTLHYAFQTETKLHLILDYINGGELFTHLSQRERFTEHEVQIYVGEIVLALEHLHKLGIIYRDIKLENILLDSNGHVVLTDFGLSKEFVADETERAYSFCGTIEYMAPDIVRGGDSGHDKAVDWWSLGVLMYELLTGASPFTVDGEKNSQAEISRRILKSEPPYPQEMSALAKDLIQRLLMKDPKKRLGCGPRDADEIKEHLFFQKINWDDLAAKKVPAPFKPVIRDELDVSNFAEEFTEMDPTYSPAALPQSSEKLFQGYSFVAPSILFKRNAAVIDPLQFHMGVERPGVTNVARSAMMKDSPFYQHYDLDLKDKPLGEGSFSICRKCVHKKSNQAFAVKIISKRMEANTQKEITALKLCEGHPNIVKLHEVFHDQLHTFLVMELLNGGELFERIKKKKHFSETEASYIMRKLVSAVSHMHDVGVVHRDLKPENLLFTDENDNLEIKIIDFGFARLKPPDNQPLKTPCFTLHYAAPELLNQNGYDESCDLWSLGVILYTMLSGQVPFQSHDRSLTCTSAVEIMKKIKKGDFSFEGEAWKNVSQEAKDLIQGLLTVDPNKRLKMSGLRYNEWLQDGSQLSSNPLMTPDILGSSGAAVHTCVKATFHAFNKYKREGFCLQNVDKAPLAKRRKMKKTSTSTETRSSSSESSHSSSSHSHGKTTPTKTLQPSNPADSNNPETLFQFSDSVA
VALUE_KIND: Ki

Send back Ribosomal protein S6 kinase alpha-5 (Homo sapiens, UniProt O75582) Ki of `CNc1cncc(-c2c[nH]c(=O)c(NC(=O)c3ccc(N4CCC[C@H]4CN4CCCC4)cc3)c2)n1` only.
> 1 µM

====

ASSAY_TARGET: Tyrosine-protein kinase Fer (Homo sapiens, UniProt P16591)
VALUE_KIND: Ki

Send back Tyrosine-protein kinase Fer (Homo sapiens, UniProt P16591) Ki of `CNc1cncc(-c2c[nH]c(=O)c(NC(=O)c3ccc(N4CCC[C@H]4CN4CCCC4)cc3)c2)n1` only.
> 1000 nM

====

ASSAY_TARGET: Receptor-type tyrosine-protein kinase FLT3 (Homo sapiens, UniProt P36888)
METHOD_DESCRIPTION: Inhibition of Flt3 after 20 mins by radiometric phosphate incorporation assay
VALUE_KIND: pKi
To interpret pKi, take it as minus log10 of a concentration measured in moles per litre.

| SMILES_REPR | VALUE_KIND | OBSERVED |
| --- | --- | --- |
| CNc1cc(-c2c[nH]c(=O)c(NC(=O)c3ccc(N4CCCCC4)cc3)c2)ccn1 | pKi | 8.22 |
| O=C(Nc1cc(-c2cccc(NC3CC3)n2)c[nH]c1=O)c1ccc(N2CCCCC2)cc1 | pKi | 6.92 |
| CNc1cncc(-c2c[nH]c(=O)c(NC(=O)c3ccc(N4CCCCC4)cc3)c2)c1 | pKi | 5.98 |

Send back Receptor-type tyrosine-protein kinase FLT3 (Homo sapiens, UniProt P36888) pKi of `O=C(Nc1cc(-c2ccncc2)c[nH]c1=O)c1ccc(N2CCCCC2)cc1` only.
7.49

Send back Receptor-type tyrosine-protein kinase FLT3 (Homo sapiens, UniProt P36888) pKi of `CN(C)c1ccc(C(=O)Nc2cc(-c3ccncc3)c[nH]c2=O)cc1` only.
8.10

Send back Receptor-type tyrosine-protein kinase FLT3 (Homo sapiens, UniProt P36888) pKi of `CNc1cc(-c2c[nH]c(=O)c(NC(=O)c3ccc(N4CCCCC4)cc3)c2)ncn1` only.
7.70
